molecular target: AgBbc1; experiment: SPOT peptide array binding signal intensity (averaged, normalized) (arbitrary units (background-subtracted, floor 0; scale differs between SH3 domains)); higher = stronger binding of the SH3 domain to the peptide
Measured SPOT peptide array binding signal intensity accompanies every entry in the list below.
Quick one: just the number, no unit, thanks!

For orientation, consider the following solved cases.
VTHRLRISIPGITGR; 193
ANNQGPPNLPARDKS; 0.25
TKIRRRPQQPLTDFT; 109

Ask: Which SPOT peptide array binding signal intensity is reported for this binder? NSMRPPLLIPAATTK
Reply: 13.5

Ask: Which SPOT peptide array binding signal intensity is reported for this binder? VSKLRSPNTPRRLRK
Reply: 284
